Molecular target: TDO (Homo sapiens, UniProt P48775)
Sequence (P48775 whole entry): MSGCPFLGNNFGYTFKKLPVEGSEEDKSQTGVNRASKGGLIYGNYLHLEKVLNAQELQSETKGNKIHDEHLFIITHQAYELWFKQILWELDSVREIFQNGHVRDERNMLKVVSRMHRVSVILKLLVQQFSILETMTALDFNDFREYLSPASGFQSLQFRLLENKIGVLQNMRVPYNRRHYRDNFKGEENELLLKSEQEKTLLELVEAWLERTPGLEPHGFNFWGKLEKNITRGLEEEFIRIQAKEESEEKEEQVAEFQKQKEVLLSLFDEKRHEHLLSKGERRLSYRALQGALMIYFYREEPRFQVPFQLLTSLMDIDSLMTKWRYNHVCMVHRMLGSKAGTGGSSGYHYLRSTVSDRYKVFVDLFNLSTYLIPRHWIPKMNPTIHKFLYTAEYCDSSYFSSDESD
Assay: hTDO biochemical coupled assay
Details: 330 μM L-tryptophan, 17 minutes, room temperature; read-out: hTDO biochemical assay pIC50 (converted)
Listed below: IC50 values for each entry.

Example compounds with recorded IC50:
Noted for CS(=O)(=O)N1C2COCC1CN(c1cc(Cl)cc3[nH]ncc13)C2 : its IC50 reads < 3.16 µM

Entry under test: O=C1NC2(CCN(c3cc(Cl)cc4[nH]ncc34)CC2)C(=O)N1CC(F)(F)F . Its IC50 was < 3.16 µM

IC50 reported for this compound Clc1cc(N2CCc3[nH]ncc3C2)c2cn[nH]c2c1 : < 3.16 µM

OC1(c2ccccc2)CCN(c2cc(Cl)cc3[nH]ncc23)CC1 yielded IC50 of < 3.16 µM

Documented IC50 of O=C1NC2(CCN(c3cc(Cl)cc4[nH]ncc34)CC2)C(=O)N1CC1CCCCC1 : < 3.16 µM

GET /value?item= O=C1NCC2(CCN(c3cc(Cl)cc4[nH]ncc34)CC2)N1 &field=IC50 returns < 3.16 µM

Others:
The value of IC50 measured for the compound O=C1CCCC2(CCN(c3cc(Cl)cc4[nH]ncc34)CC2)N1 turned out to be < 3.16 µM

# compound O=C1NC2(CCN(c3cc(Cl)cc4[nH]ncc34)CC2)C(=O)N1CCO ; its IC50 = < 3.16 µM

====

Target: IDO (Homo sapiens, UniProt P14902)
Sequence (P14902 whole entry): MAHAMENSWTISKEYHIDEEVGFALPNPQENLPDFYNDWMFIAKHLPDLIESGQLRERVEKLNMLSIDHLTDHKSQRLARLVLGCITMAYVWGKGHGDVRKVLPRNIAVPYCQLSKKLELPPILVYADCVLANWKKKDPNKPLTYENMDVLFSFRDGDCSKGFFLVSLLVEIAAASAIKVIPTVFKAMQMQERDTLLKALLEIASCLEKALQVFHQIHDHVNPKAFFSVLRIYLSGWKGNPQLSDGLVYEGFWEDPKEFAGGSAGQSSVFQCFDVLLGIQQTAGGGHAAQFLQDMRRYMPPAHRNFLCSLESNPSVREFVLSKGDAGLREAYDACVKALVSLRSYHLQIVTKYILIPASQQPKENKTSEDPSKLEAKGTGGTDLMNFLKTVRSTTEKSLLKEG
Experiment: hIDO biochemical coupled assay
Details: 45 μM L-tryptophan, 17 minutes, room temperature; read-out: hIDO biochemical assay pIC50 (converted)
MEASURE: IC50

Lab book: IC50 of Clc1cc(N2CCN(c3ccncc3)CC2)c2cn[nH]c2c1 [Compound 374] noted as > 100 µM

Short answer for Clc1cc(N2CCc3cn[nH]c3C2)c2cn[nH]c2c1 [Compound 417] : IC50 was > 100 µM

Query OC1(c2cc(Cl)cc3[nH]ncc23)CCCC1 [Compound 320] yields IC50 of 3.24 to 31.6 µM

// sample CN1C(=O)CCC12CCN(c1cc(Cl)cc3[nH]ncc13)CC2 [Compound 245] , its IC50 was 3.24 to 31.6 µM

Lab note: Clc1cc(N2CCN(c3ncccn3)CC2)c2cn[nH]c2c1 [Compound 309] gave IC50 of > 100 µM

====

Target: UniProt P48775
Experiment: A172 kynurenine cell-based assay
Design: This assay utilised cancer cells which expressed either TDO or IDO; endogenous in cells; host or cells: A172 (human glioblastoma)
Conditions: A172 human glioblastoma cells, 48 hours, 500 μM L-tryptophan; read-out: A172 Kynurenine cell based assay pIC50 (converted)
MEASURE: IC50

Sample answers from the record:
Record summary for O=C1Nc2ccccc2NC12CCN(c1cc(Cl)cc3[nH]ncc13)CC2 [Compound 404] : reported IC50 = 3.24 to 31.6 µM

The reported IC50 of the molecule CC(=O)N1CCN(c2cccc3[nH]ncc23)CC1 [Compound 11] was 3.24 to 31.6 µM

The molecule listed as CC1(C)CN(c2cc(Cl)cc3[nH]ncc23)CCC1NS(C)(=O)=O (stereo not shown) [Compound 336] shows IC50 equal to < 3.16 µM

Per the record, O=C1NCC2(CCN(c3cc(Cl)cc4[nH]ncc34)CC2)N1 [Compound 267] has IC50 of < 3.16 µM

# molecule NS(=O)(=O)N1CCC2(CCN(c3cc(Cl)cc4[nH]ncc34)CC2)CC1 [Compound 363] ; its IC50 = < 3.16 µM

Others:
The measured IC50 associated with Cn1ncc2c1CCN(c1cc(Cl)cc3[nH]ncc13)C2 [Compound 369] reads < 3.16 µM

get_value(item= O=C(CO)N1CCN(c2cc(Cl)cc3[nH]ncc23)CC1 [Compound 129] , readout=IC50) returns < 3.16 µM

# IC50 (molecule: CC1(C)CN(c2cc(Cl)cc3[nH]ncc23)CCN1S(N)(=O)=O [Compound 227] ) is < 3.16 µM

IC50 reading for Cc1ccc(C2CCN(S(C)(=O)=O)CC2)c2cn[nH]c12 [Compound 39] : > 100 µM

Record summary for CC(C)CC(O)c1cc(Cl)cc2[nH]ncc12 (stereo not shown) [Compound 272] : reported IC50 = < 3.16 µM

So, Nc1ccnn1C1CCN(c2cc(Cl)cc3[nH]ncc23)CC1 [Compound 430] ? Its IC50 was 3.24 to 31.6 µM

Lab book: IC50 of CC(=O)N(C)c1cc(C2CCN(S(C)(=O)=O)CC2)c2cn[nH]c2c1 [Compound 337] noted as > 100 µM

The molecule listed as CS(=O)(=O)N1C2CCC1CN(c1cc(Cl)cc3[nH]ncc13)C2 [Compound 232] shows IC50 equal to < 3.16 µM

====

Reported values of IC50 for individual entries
Target: TDO (Homo sapiens)
Experiment: hTDO biochemical coupled assay
Details: 330 μM L-tryptophan, 17 minutes, room temperature; read-out: hTDO biochemical assay pIC50 (converted)

Check out these entries, answers already filled in.
// IC50 value for Cn1ncc2cccc(N3CCN(S(C)(=O)=O)CC3)c21 : 32.4 to 100 µM

Record CC(=O)N1CCC(n2cc(-c3cc(Cl)cc4[nH]ncc34)cn2)CC1 , field IC50: < 3.16 µM

Next:
IC50 in this record for Cn1ccnc1N1CCN(c2cc(Cl)cc3[nH]ncc23)CC1 : < 3.16 µM

Form field IC50, entry CC1(C)CN(c2cc(Cl)cc3[nH]ncc23)CCC12NC(=O)NC2=O (stereo not drawn) : < 3.16 µM

IC50 recorded for this compound, Clc1cc(N2CCCCC2)c2cn[nH]c2c1 , is 3.24 to 31.6 µM

====

Target: UniProtKB P48775
Assay: hTDO biochemical coupled assay
Conditions: 330 μM L-tryptophan, 17 minutes, room temperature; read-out: hTDO biochemical assay pIC50 (converted)
MEASURE: IC50

Below are worked cases with known answers.
Item: Clc1cc(N2CCN(c3cccnc3)CC2)c2cn[nH]c2c1 [Compound 375] | IC50: < 3.16 µM

Recorded IC50 (compound Clc1cc(N2CCC(c3cscn3)CC2)c2cn[nH]c2c1 [Compound 442] ): < 3.16 µM

Record CNC(=O)C1CCN(c2cc(Cl)cc3[nH]ncc23)C1 (centres unmarked) [Compound 298] . Reported IC50: < 3.16 µM

Sample CN1CC2(CCN(c3cc(Cl)cc4[nH]ncc34)CC2)CC1=O [Compound 291] ; IC50 observed: < 3.16 µM

Reported IC50 for Cc1c2c(nn1C)CCN(c1cc(Cl)cc3[nH]ncc13)C2 [Compound 378] was < 3.16 µM

---
// Clc1cc(N2CCOCC2)c2cn[nH]c2c1 [Compound 327] : IC50 value = 3.24 to 31.6 µM

Sample CC(=O)N(C)CC1CCN(c2cc(Cl)cc3[nH]ncc23)CC1 [Compound 282] ; IC50 observed: < 3.16 µM

Reported IC50 for CS(=O)(=O)N1CCN(c2cc(F)cc3[nH]ncc23)CC1 [Compound 44] was < 3.16 µM

Briefly, IC50 measured for CS(=O)(=O)N1CCN(c2cc(C(F)(F)F)cc3[nH]ncc23)C2CCCCC21 (single isomer, unassigned) [Compound 415] : 3.24 to 31.6 µM

The reported value for Clc1cc(N2CCN(c3ccccn3)CC2)c2cn[nH]c2c1 [Compound 324] in terms of IC50 is < 3.16 µM

The value of IC50 measured for the compound CC(C)CS(=O)(=O)Nc1cccc2[nH]ncc12 [Compound 8] turned out to be 3.24 to 31.6 µM

# IC50 (compound: O[C@@H]1CCCC[C@@H]1c1cc(Cl)cc2[nH]ncc12 [Compound 419] ) is < 3.16 µM

Value of measured IC50 for the entry Nc1ccnn1C1CCN(c2cc(Cl)cc3[nH]ncc23)CC1 [Compound 430] : < 3.16 µM

Consider C[C@H]1CN(S(C)(=O)=O)CCN1c1cc(C(F)(F)F)cc2[nH]ncc12 [Compound 214] . Its measured IC50 is < 3.16 µM

====

Measured IC50 values are reported for all entries that follow.
Target: TDO (Homo sapiens)
Experiment: hTDO biochemical coupled assay
Conditions: 330 μM L-tryptophan, 17 minutes, room temperature; read-out: hTDO biochemical assay pIC50 (converted)

Solved cases below.
compound c1ccc(CNc2cccc3[nH]ncc23)cc1 [Compound 34] , IC50 observed: 3.24 to 31.6 µM

For O=C1NC(=O)C(C2CCN(c3cc(Cl)cc4[nH]ncc34)CC2)N1 (centres unmarked) [Compound 443] the compound record lists IC50 as < 3.16 µM

Per the records, this compound ( O=C1NC2(CCN(c3cc(Cl)cc4[nH]ncc34)CC2)C(=O)N1CC1CC1 [Compound 390] ) has IC50 equal to < 3.16 µM

The recorded IC50 for CC(=O)N1CCN(c2cc(Cl)cc3c(N)n[nH]c23)CC1(C)C [Compound 307] is < 3.16 µM

Moving on to the next compound.
Kindly note the recorded IC50 for CC(=O)N(C)CC1CCCN(c2cc(Cl)cc3[nH]ncc23)C1 (centres unmarked) [Compound 286] , which is < 3.16 µM
